Test system: Staphylococcus aureus MW2 delta-mecA (mecA-)
Experiment: IC50 (growth, competition assay)
Conditions: fluorescent label: DsRed; cefoxitin: subinhibitory
Structures can show the parent of a compound that is named as a salt.
The compounds listed here are annotated with their IC50.
State just the number; it will be interpreted in µM.

Reference set (3 entries):
# Compound, Readout unit, Result value
rows = [
    ("CC(C)(Oc1ccc(C2CC2(Cl)Cl)cc1)C(=O)O (stereo not given) [Ciprofibrate]", "µM", 21.6),
    ("COc1cc2c(Oc3ccc(NC(=O)C4(C(=O)Nc5ccc(F)cc5)CC4)cc3F)ccnc2cc1OCCCN1CCOCC1", "µM", 13.2),
    ("CCC(C)(C)C(=O)O[C@H]1C[C@@H](C)C=C2C=C[C@H](C)[C@H](CC[C@@H]3C[C@@H](O)CC(=O)O3)[C@H]21", "µM", 47.8),
]

Entry C=C1C(=O)[C@]23[C@H](O)[C@H]1CC[C@H]2[C@@]12CO[C@]3(O)[C@@H](O)[C@@H]1C(C)(C)CC[C@@H]2O under Staphylococcus aureus MW2 delta-mecA (mecA-) had IC50 of 13.7

Entry CN[C@H]1CC[C@@H](c2ccc(Cl)c(Cl)c2)c2ccccc21 [Sertraline hydrochloride] under Staphylococcus aureus MW2 delta-mecA (mecA-) had IC50 of 22.8

Entry COC(=O)C1=C(C)NC(C)=C(C(=O)OCC(C)C)C1c1ccccc1[N+](=O)[O-] (stereo not given) [Nisoldipine] under Staphylococcus aureus MW2 delta-mecA (mecA-) had IC50 of 12.7

---

The molecules listed here are annotated with their pIC50.
Tested on: Staphylococcus aureus MW2 delta-mecA (mecA-)
Assay: IC50 (growth, competition assay)
Conditions: fluorescent label: DsRed; cefoxitin: subinhibitory
pIC50: −log10 of the molar value.

molecule Cc1oc(=O)oc1CN1CCN(c2cc3c(cc2F)c(=O)c(C(=O)O)c2n3C(C)S2)CC1 (stereo not drawn) , pIC50 observed: > 5.01

molecule COc1ccnc2[nH]cc(C(=O)C(=O)N3CCN(C(=O)c4ccccc4)C[C@H]3C)c12 , pIC50 observed: < 3.82

molecule N[C@@H]1CN(c2c(F)cc3c(=O)c(C(=O)O)cn([C@@H]4C[C@@H]4F)c3c2Cl)CC12CC2 [Sitafloxacin hydrate] , pIC50 observed: > 6.30

molecule COc1cccc(C2(O)CCCCC2CN(C)C)c1 (stereo not drawn) , pIC50 observed: 3.99

---

Test system: Staphylococcus aureus MW2 (mecA+)
Experiment: IC50 (growth, competition assay)
Conditions: fluorescent label: DsRed; cefoxitin: subinhibitory
The compounds listed here are annotated with their pIC50.
A value of pIC50 is the negative decimal logarithm of a concentration given in moles per litre.

# Compound, pIC50
rows = [
    ("CCN(CC)C(=S)SSC(=S)N(CC)CC [ANTABUSE]", 4.50),
    ("CC(C)c1nc(CN(C)C(=O)N[C@@H](CCN2CCOCC2)C(=O)N[C@H](CC[C@H](Cc2ccccc2)NC(=O)OCc2cncs2)Cc2ccccc2)cs1 [Cobicistat (GS-9350)]", 3.96),
    ("CSc1ccc2c(c1)N(CCC1CCCCN1C)c1ccccc1S2 (stereo not drawn) [MELLARIL]", 4.17),
]

compound CO/N=C(\C(=O)N[C@@H]1C(=O)N2C(C(=O)OCOC(=O)C(C)(C)C)=C(/C=C\c3scnc3C)CS[C@H]12)c1csc(N)n1 [SPECTRACEF] , pIC50 observed: 4.48

compound Clc1ccc(CO/N=C(\Cn2ccnc2)c2ccc(Cl)cc2Cl)c(Cl)c1 , pIC50 observed: 4.45

compound C[C@H](Oc1cc(-c2cnn(C3CCNCC3)c2)cnc1N)c1c(Cl)ccc(F)c1Cl [(S)-crizotinib] , pIC50 observed: 4.12

compound O=C1C(Cl)=C(NCCN2CCOCC2)C(=O)c2ncccc21 , pIC50 observed: 4.48

Origin of measurements: the supplement of paper PMC7695840
